Origin of values: PubChem BioAssay

Assay: cell viability in Huh7 cells, primary screen, cytotoxicity control for HCV replication inhibitor project, CellTiter-Glo luminescence, basal, 48 h (AID 1143);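 also: Huh7 hepatoma cells carrying a hepatitis C replication reporter with no stimulus; test concentration not given here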
Conditions: Huh7 HCV replicon, higher = more signal, called active from +8 up or from −8 down
Active and inactive are the calls of the source.
value kind: z-score

Previously resolved entries follow.
| compound | value kind | result |
| --- | --- | --- |
| CC(C)C[C@@H]1NC(=O)[C@@H]2C[C@H](C(=O)NCCCCN(C)C)[C@H](c3cccc(OCCO)c3)N2C1=O | z-score | -0.193 (inactive) |
| COCCOC(=O)N1C(=O)[C@@]2(c3cc(C#CC4=CCCCC4)ccc31)[C@H](c1ccc(O)cc1)N1[C@H](c3ccccc3)[C@H](c3ccccc3)OC(=O)[C@H]1[C@@H]2C(=O)N1CCN(c2ncccn2)CC1 | z-score | 0.498 (inactive) |
| COc1ccc([Si](C)(C)[C@H]2[C@H](CCn3cc([C@H](O)c4ccccc4)nn3)O[C@@]3(C(=O)N(Cc4ccc(N5C(=O)c6cccc7cccc5c67)cc4)c4ccccc43)[C@@H]2C)cc1 | z-score | -2.02 (inactive) |
| COC(=O)[C@@]1(Cc2ccc(OC)cc2)[C@H]2c3cc(C(=O)N(C)C)n(Cc4ccc(Cl)c(C(F)(F)F)c4)c3C[C@H]2CN1C(=O)c1ccccc1 | z-score | -2.81 (inactive) |
| COc1ccc([Si](C)(C)[C@@H]2[C@@H](CC(=O)N(CCO)Cc3ccccc3)O[C@]3(C(=O)N(Cc4cccc(N5CCOC5=O)c4)c4ccccc43)[C@H]2C)cc1 | z-score | -5.47 (inactive) |

Please look up its z-score: Cc1cc(C)c(C(O)C2C=CC3C(=O)NC(=O)C3N2Nc2ccc(Cl)cc2Cl)c(C)c1 (stereo not drawn)
-0.943 (inactive)

Item C=CCN1C(=O)[C@@]2(O[C@@H](CCn3cc([C@H](O)c4ccccc4)nn3)[C@H]([Si](C)(C)c3ccc(OC)cc3)[C@H]2C)c2cc(N3CCC3=O)ccc21 has what recorded z-score?
-1.83 (inactive)

Which z-score is listed for COC(=O)c1c(CC[C@@H](CO)NC(=O)N[C@H](Cn2cc(C3(O)CCCCC3)nn2)C(C)C)oc(C(C)=O)c1C(=O)OC ?
-2.81 (inactive)

I have this compound here, CCCCCCc1nc(C2CC2)cc2c1[Si](C(C)C)(C(C)C)OC2 , and I need its recorded z-score.
-2.44 (inactive)

Could you tell me which z-score is on file for COCCOC(=O)N1C(=O)[C@@]2(c3cc(C#CCNC(N)=O)ccc31)[C@H](C(=O)N1CCc3cc(OC)c(OC)cc3C1)[C@H]1C(=O)O[C@H](c3ccccc3)[C@H](c3ccccc3)N1[C@@H]2c1ccccc1OCCO ?
-2.32 (inactive)

----------
Assay: binders of probe aHhip on microarray, primary screen, stem cell growth factor project, biochemical, small-molecule microarray, fluorescence 635/667 (AID 1087);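 also: score merges spot fluorescence at 667nm with spot signal to noise ratio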
Details: higher = more signal
Threshold rule: composite z-score greater than or equal to -0.2 is TRUE; below that, FALSE.

Some solved entries appear below for comparison.
| compound | cat |
| --- | --- |
| CCCC[C@@H](O)C1=C(COc2ccccc2)C[C@H]2C(=O)N(C)C(=O)[C@H]2[C@H]1CO | FALSE |
| CC(C)(C)N1CC=CC23O[C@@H]4C=CCCOC(=O)C4[C@H]2C(=O)N(CCO)[C@@H]3C1=O (stereo partly drawn) | FALSE |
| COc1ccc([Si](C)(C)[C@@H]2[C@@H](CC(=O)N(CCO)Cc3ccccc3)O[C@]3(C(=O)N(Cc4cccc(N5CCOC5=O)c4)c4ccccc43)[C@H]2C)cc1 | FALSE |

For this compound, is measured composite z-score -0.2 or higher? COc1cc(OC)c(C(O)C2C=CC3C(=O)N(c4ccccc4)C(=O)C3N2Nc2ccccc2)cc1Br (stereo not drawn)
TRUE

For this compound, is measured composite z-score -0.2 or higher? COCCOC(=O)N1C(=O)[C@@]2(c3cc(C#CC4=CCCCC4)ccc31)[C@H](c1ccc(OCCO)cc1)N1[C@H](c3ccccc3)[C@H](c3ccccc3)OC(=O)[C@H]1[C@@H]2C(=O)NC[C@H](O)c1ccccc1
TRUE

Is composite z-score at least -0.2? Consider CN1C(=O)C2C=CC(C(O)c3cccc4ccccc34)N(N3CCCCC3)C2C1=O (stereo not drawn)
TRUE

Exam item: decide whether the reported composite z-score for CCC[C@@H]1C[C@@]1(CCC)[C@@H](NC(=O)OCc1ccccc1)c1ccc(-c2ccccc2)cc1 is at least -0.2.
TRUE

Please check the record NC(=O)NCC#Cc1ccc2c(c1)[C@]1(C(=O)N2)[C@H](C(=O)O)[C@H]2C(=O)O[C@H](c3ccccc3)[C@H](c3ccccc3)N2[C@@H]1c1ccc(OCCO)cc1 and state if its composite z-score is at or above -0.2.
TRUE

----------
Experiment: fission yeast growth modulation, primary screen, strain 972, OD600, 24 h, no modulator (AID 1090);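 also: basal condition with compound alone and no growth modifier present; test concentration not given here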
Settings: S. pombe 972 growth, higher = more signal, called active from +8 up or from −8 down
Calls of active or inactive are those of the source.
value kind: z-score

The following molecules have reported results that may help.
| molecule | result |
| --- | --- |
| C=CCC(OC(C)=O)[C@@H]1[C@@H](N(Cc2ccc(-c3ccccc3)cc2)C(=O)Cc2ccc(F)cc2)c2cc(OCCCO)ccc2N1C(=O)Cc1ccc(OC)cc1 (stereo partly specified) | 0.278 (inactive) |
| [N-]=[N+]=NCc1ccccc1C[C@@]1(C(=O)N2CCCCC2)N=C(c2ccc(OCCCO)cc2)O[C@@H]1c1ccccc1 | 1.08 (inactive) |
| COC(=O)c1c2oc(c1C(=O)OC)C(=O)N(Cc1ccccc1)Cc1cn(nn1)C[C@H](Cc1ccccc1)NC(=O)N[C@H](CO)CC2 | -1.15 (inactive) |
| COC(=O)c1c(CC[C@@H](CO)NC(=O)N[C@H](Cn2cc(C3(O)CCCCC3)nn2)C(C)C)oc(C(C)=O)c1C(=O)OC | -2.39 (inactive) |
| CC(=O)NCCCC[C@@H]1NC(=O)[C@@H]2C[C@H](C(=O)NCCCC[N+](C)(C)C)[C@H](c3ccc(O)cc3)N2C1=O | -0.266 (inactive) |
| CN1C(=O)C2C=CC(C(O)COCc3ccccc3)N(N(c3ccccc3)c3ccccc3)C2C1=O (stereo unspecified) | -1.86 (inactive) |

Sample CCCCCCc1nc(C2CC2)cc2c1[Si](C(C)C)(C(C)C)OC2 — what was its z-score?
-0.183 (inactive)

// returns reported z-score for input COC(=O)c1nc2oc1CC[C@@H](CO)NC(=O)N(C)Cc1cnnn1C[C@H](Cc1ccccc1)NC2=O
0.127 (inactive)

# get_value(readout='z-score', item= Cc1ccc(S[C@]2(C(=O)O)CC(=O)N(C3Cc4ccccc4C3)[C@@H]2c2ccc(CO)cc2)cc1 )
-1.36 (inactive)

Any idea what z-score was measured for O=C(NCC(F)(F)F)[C@@H]1c2ccccc2C(=O)N(Cc2ccccc2C(F)(F)F)[C@H]1c1ccc(CO)cc1 ?
-0.205 (inactive)

I would be grateful if you could share the reported z-score for CCOC(=O)C[C@H]1[C@H](OC(=O)Cc2ccc3c(c2)OCO3)[C@@H](NC(=O)Cc2ccc(OC)cc2)c2cc(OCCCO)ccc2N1C(=O)c1ccc2ccccc2n1 .
-1.34 (inactive)

----------
Tested on: Inhibin beta A chain (activin A)
Test: INHBA (activin A) binders on microarrays, primary screen, biochemical, small-molecule microarray, 635 nm fluorescence scan (AID 1107);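 also: mouse activin A protein probed at 4.33 µg/mL on printed slides; score merges bound-protein fluorescence near 667 nm with spot signal-to-noise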
Settings: small-molecule microarray binding, higher = more signal
Reported composite z-score values for a set of molecules

Solved cases (2 shown):
| molecule | value kind | result |
| --- | --- | --- |
| COC(=O)C(CC#Cc1ccc2c(c1)[C@]1(C(=O)N2)[C@H](c2ccccc2OCCO)N2[C@H](c3ccccc3)[C@H](c3ccccc3)OC(=O)[C@H]2[C@@H]1C(=O)NC[C@H](O)c1ccccc1)C(=O)OC | composite z-score | 0.897 |
| CN1C(=O)C2C=CC(C(O)C#Cc3ccccc3)N(Nc3ccccc3)C2C1=O (stereo not drawn) | composite z-score | 0.926 |

# ---- query molecule ----
May I ask what composite z-score has been recorded for N#Cc1ccc(C(O)C2C=CC3C(=O)N(c4ccccc4)C(=O)C3N2Nc2ccccc2)cc1 (stereo not drawn) ?
0.877

----------
Test: mitochondrial membrane potential change in A549 cells, profiling panel, cell-based, JC-1 fluorescence, basal, 24 h, 100 nL (AID 1138);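 also: A549 lung adenocarcinoma cells under basal conditions with no added stimulus; test concentration not given here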
Conditions: higher = more signal
Given measured z-score, output Fulfilled if it is greater than or equal to -0.6 and Not fulfilled if not.

| molecule | cat |
| --- | --- |
| CC(C)(C)N1CC=CC23O[C@@H]4C=CCCOC(=O)C4[C@H]2C(=O)N(CCO)[C@@H]3C1=O (stereo partly specified) | Not fulfilled |
| COCCOC(=O)N1C(=O)[C@@]2(c3cc(C#CC4(O)CCCCCC4)ccc31)[C@H](c1ccc(O)cc1)N1[C@H](c3ccccc3)[C@H](c3ccccc3)OC(=O)[C@H]1[C@@H]2C(=O)NC[C@H](O)c1ccccc1 | Not fulfilled |
| CN(C)c1ccc(C(O)C2C=CC3C(=O)N(c4ccccc4)C(=O)C3N2Nc2ccc([N+](=O)[O-])cc2)cc1 (stereo unspecified) | Not fulfilled |
| CCCC[C@@H]1C[C@H]1[C@@H](NC(=O)Cc1ccccc1)c1ccc(-c2ccccc2)cc1 | Fulfilled |
| COC(=O)[C@@]1(Cc2ccc(OC)cc2)[C@H]2c3cc(C(=O)N4CCCC4)n(Cc4cccc5ccccc45)c3C[C@H]2CN1C(=O)c1ccccc1 | Fulfilled |

Dear colleague, could you confirm whether Cn1cccc1C(O)C1C=CC2C(=O)NC(=O)C2N1Nc1ccc(Cl)cc1Cl (stereo unspecified) has z-score at or above -0.6?
Fulfilled
